Reference for the values: the supplement of paper PMC10724198

# System: Saccharomyces cerevisiae
# measurement_notes: protein stability index of tFT-peptide fusion (C-terminal peptide) (PSI (0-1 scale)); higher = more stable (slower turnover)
# assay_context: genetic background: cdc34-1; temperature: 37 C
Listing of entries alongside the reported protein stability index.
property_measured: protein stability index

           chain        property_measured  value_observed
 0  HINRTIWARYQV  protein stability index           0.648
 1  GFLRTVHFLLLG  protein stability index           0.634
 2  DIRLWISCTLWF  protein stability index           0.244
 3  FFCLFCLSCWVL  protein stability index           0.403
 4  ERRWVLVAWRFK  protein stability index           0.555
 5  GGIRLRVRFFVI  protein stability index           0.584
 6  IDLISRVTVVAR  protein stability index           0.394
 7  FLFCMIFIFRCF  protein stability index           0.216
 8  CKYCKCVVLLWS  protein stability index            0.53
 9  ERRWKRKVIGLC  protein stability index           0.632
10  LWFLDYVFICFL  protein stability index           0.335
11  DLFVFFVFHFFL  protein stability index           0.425
12  GPPPPPSLLLLC  protein stability index             0.6
13  RLPYSLTFFLLC  protein stability index           0.414
14  MMEMMTKSNRIP  protein stability index           0.683
15  LFFGLCFVFFGF  protein stability index           0.384
16  SLSSSFQFSSPS  protein stability index           0.701
17  PCVPRLLPLQLS  protein stability index           0.628
18  FFLFLFFFLRGS  protein stability index           0.485

----------
# Test system: Saccharomyces cerevisiae
# measurement_notes: protein stability index of tFT-peptide fusion (C-terminal peptide) (PSI (0-1 scale)); higher = more stable (slower turnover)
# assay_context: genetic background: wild type; temperature: 30 C
# cutoff 0.7 applies to protein stability index; >= gives condition met, < gives condition not met

>>> df
                                       chain              group
 0      ICRVAIWSAERI [CAT5 C-terminal 12 aa]  condition not met
 1     SINGVNLELIKD [MIX14 C-terminal 12 aa]  condition not met
 2  VKKYSMKKKKKR [YDR320W-B C-terminal 12 aa]  condition not met
 3   TMNCNNADDMLF [YGR190C C-terminal 12 aa]  condition not met
 4      KTIDNLKALMKN [PFD1 C-terminal 12 aa]      condition met
 5      LLISMIAAGILL [GAS2 C-terminal 12 aa]  condition not met
 6     KIYMANAPPPPV [VPS54 C-terminal 12 aa]  condition not met
 7      ENVLNKEGVLQK [GIN4 C-terminal 12 aa]      condition met
 8      ITSKPPATVEWE [GUA1 C-terminal 12 aa]      condition met
 9      IIFGHDNLWTVR [ALG7 C-terminal 12 aa]      condition met
10      RSHRKQPLKRKD [BRE5 C-terminal 12 aa]  condition not met
11      TPSKEINFDDDF [RNR4 C-terminal 12 aa]      condition met
12   VLVFSWRHIFCF [YJL120W C-terminal 12 aa]  condition not met
13      ARMTGETPVAKH [YHM2 C-terminal 12 aa]  condition not met
14   FKMCPFFISWFL [YBL073W C-terminal 12 aa]  condition not met
15      DSVEMKFDKLNI [RBS1 C-terminal 12 aa]      condition met
16      NSTSSKDKKKKN [SES1 C-terminal 12 aa]      condition met
17      PEKGSGFNTNLG [DCS2 C-terminal 12 aa]      condition met
18   SLDKMAQQLGVE [YKR005C C-terminal 12 aa]  condition not met
19   TASQLLEVQSKS [YGL039W C-terminal 12 aa]  condition not met

----------
Listing of entries alongside the reported protein stability index.
# Test system: Saccharomyces cerevisiae
# measurement_notes: protein stability index of tFT-peptide fusion (C-terminal peptide) (PSI (0-1 scale)); higher = more stable (slower turnover)
# assay_context: genetic background: wild type; temperature: 30 C
property_measured: protein stability index

           chain           target_of_assay  value_observed
 0  LVLFSRCSPFFL  Saccharomyces cerevisiae           0.659
 1  GLVCPWLIVRFV  Saccharomyces cerevisiae             0.2
 2  RMNSDMKDTEAQ  Saccharomyces cerevisiae            0.65
 3  EKVASLVTIFDM  Saccharomyces cerevisiae           0.695
 4  PYRLPRSLLFFP  Saccharomyces cerevisiae           0.669
 5  GFPFLFILYFLC  Saccharomyces cerevisiae           0.158
 6  GVSLFFITQFET  Saccharomyces cerevisiae           0.712
 7  PPPPPLPRALST  Saccharomyces cerevisiae            0.72
 8  PPLPSTAPPSPL  Saccharomyces cerevisiae           0.735
 9  VSVQVRCCPWVG  Saccharomyces cerevisiae           0.715
10  VLSSSPFLHFGC  Saccharomyces cerevisiae           0.663
11  GGGARCGWGGRM  Saccharomyces cerevisiae             0.7
12  VPPPPPSRSRPV  Saccharomyces cerevisiae           0.713
13  PLLPPPGALFLL  Saccharomyces cerevisiae           0.718
14  VRVRSLEGWGMG  Saccharomyces cerevisiae           0.669
15  PPPLSFPSVYLT  Saccharomyces cerevisiae            0.75
16  VTTPHPPAPPPP  Saccharomyces cerevisiae           0.765
17  RNCSFRRIQLAM  Saccharomyces cerevisiae           0.362
18  SITYDRLLPHSS  Saccharomyces cerevisiae           0.659

----------
# System: Saccharomyces cerevisiae
# measurement_notes: protein stability index of tFT-peptide fusion in deletion strain of DAS1 (PSI (0-1 scale)); higher = more stable (slower turnover)
# cutoff 0.6 applies to protein stability index; >= gives MET, < gives NOT MET

>>> df
          chain           target_of_assay    group
0  VRGAVGGARLVG  Saccharomyces cerevisiae      MET
1  PSLAASFWRVVR  Saccharomyces cerevisiae      MET
2  ARWRVGLWRYAS  Saccharomyces cerevisiae      MET
3  CTSCGYKFKTNN  Saccharomyces cerevisiae      MET
4  ARWRTGLWRGAS  Saccharomyces cerevisiae      MET
5  LGVYLSCVACIN  Saccharomyces cerevisiae  NOT MET

----------
# System: Saccharomyces cerevisiae
# measurement_notes: protein stability index of tFT-peptide fusion (C-terminal peptide) (PSI (0-1 scale)); higher = more stable (slower turnover)
# assay_context: genetic background: wild type; temperature: 30 C
Listing of entries alongside the reported protein stability index.
property_measured: protein stability index

>>> print(df.to_string())
          chain  value_observed
0  ALATPLWDLMPP           0.606
1  VTGCAVLSGAGE           0.675
2  LWGGGVGRVRGV           0.658
3  LEVHQGYLSSCH           0.676
4  RWVWRNRSGGGE           0.636
5  SLPPPLPPPAPP           0.614
6  HSRPHTAPPYRA           0.643
7  LGHQFKGTILRV            0.73
8  FHPRLGVRLGIT           0.632
9  KRGRRKLQRGRQ           0.679

----------
# Test system: Saccharomyces cerevisiae
# measurement_notes: protein stability index of tFT-peptide fusion (C-terminal peptide) (PSI (0-1 scale)); higher = more stable (slower turnover)
# assay_context: genetic background: doa10 deletion; temperature: 30 C
# cutoff 0.3 applies to protein stability index; >= gives Met, < gives Not met

>>> print(df.to_string())
           chain    group
 0  GGGVGGAVVLFW      Met
 1  RLMLSWLALRRC      Met
 2  IHCLSIVVHGLS      Met
 3  GVVCCVVVGRMG      Met
 4  LLVIAIKVPANS      Met
 5  GSVCVVCWELVV  Not met
 6  VFRRWGLIGVIV  Not met
 7  SWFNLLSILPRD      Met
 8  FFCVLGLSFFCL      Met
 9  LRFFYFLHFCIL  Not met
10  PCVPRLLPLQLS  Not met
11  GFAFFIGLSFAF      Met
12  RLGRYSIIHCLA  Not met
13  FMSAGVSWIFFV  Not met
14  FQLGLVFCVCSG  Not met
15  VFSVSVLFLFFH  Not met
16  GQRIKWGPIYLT      Met
17  FTGLCQGLWLGW      Met
